Assign TGI to each entry below.
- System: LXFL 529 NSCLC
- EXPERIMENT DESCRIPTION: NCI tumour cell line growth inhibition, 48 h

Recorded TGI, per entry:
CC(=O)O.CC(=O)O.CC(=O)O.CC(=O)O.CC(=O)O.CC(=O)O.O.[Ti].[Ti]    > 100 µM
Cc1ccc(S(=O)(=O)NCC2CCCCC2=O)cc1 (stereo unspecified)    > 100 µM
CSc1nc2c(nc(C)c(=O)n2C2OCC(OC(C)=O)C(OC(C)=O)C2OC(C)=O)c(=O)[nH]1 (stereo unspecified)    > 100 µM
O=C1CN=C(C[N+](=O)[O-])c2ccccc21    > 100 µM
CC1=CC(/C=C(\C)CCCc2ccoc2)C2(OC(=O)C(C)=C2O)[C@H]2C1CC[C@@H]2C (stereo partly specified)    58.8 µM
COC(=O)C1=C(C)N(NC(=O)c2ccccc2)C(C)(O)C12CCOC2=O (stereo unspecified)    > 100 µM

List reported TGI for each of these compounds:
1. S=C(N/N=C/c1ccco1)NC12CC3CC(CC(C3)C1)C2
2. COc1cc(C[S+]2CCCC2)c(SC)cc1C[S+]1CCCC1

Ans:
1. > 100 µM
2. > 100 µM

List reported TGI for each of these compounds:
1. Cc1cc(Br)cc(C)c1NC(=O)C(=O)C(C(=O)c1ccc2ccccc2c1)C1OC(=O)c2ccccc21 (stereo unspecified)
2. Cc1ccc(NC(=O)c2c(C)nc(=O)n3c2N(/N=C/c2ccc(Cl)cc2)CC3)cc1
3. O=[n+]1c2c(n([O-])c3ccccc31)CCCCCCCCCC2
4. O=C1OC(c2ccccc2)=N/C1=C/C=C/c1ccco1
5. COc1ccc(C2S/C(=C\c3ccccc3O)C(=O)N2NC(=O)Cc2ccccc2)cc1 (stereo unspecified)

Ans:
22.3 µM
31.6 µM
> 100 µM
> 100 µM
> 100 µM
